settings: Ebola virus entry assay, green fluorescence channel; further: 0% is about no effect
Measured potencies and affinities stand elsewhere. Calls of active or inactive are those of the source. How the calls were made is not given here.
experimental readout: efficacy

Cn1cnc2c1c(=O)[nH]c(=O)n2C :: -13.7% (inactive)
CC(=O)Nc1ccn(C2COC(COC(=O)c3ccccc3)O2)c(=O)n1 (stereo not given) :: -16% (inactive)
C[C@]12CC[C@H]3[C@@H](CC=C4C[C@@H](O)CC[C@@]43C)[C@@H]1CC[C@@H]2O :: -35.9% (inactive)
CCC1(c2ccccc2)CCC(=O)NC1=O (stereo not given) :: 11% (inactive)
CC1=CC(=O)c2ccccc2C1=O :: 12.6% (inactive)

# molecule `Nc1nc2ccccc2n1Cc1ccc(F)cc1` ; its efficacy = 54.1% (inactive)

# molecule `O=C(O)c1ccc(OCCCOc2ccc(C(=O)O)cc2)cc1` ; its efficacy = 11.3% (inactive)

# molecule `O=C1NCCN1CCN1CCC(c2cn(-c3ccc(F)cc3)c3ccc(Cl)cc23)CC1` ; its efficacy = -279% (inactive)

# molecule `C[C@]12CCC(=O)C=C1CC[C@@H]1[C@@H]2CC[C@@]2(C)[C@H]1CC[C@]2(O)C(=O)CO` ; its efficacy = 55.8% (inactive)

# molecule CCn1ccnc1CC1COc2ccccc2O1 (stereo not given) ; its efficacy = -17.5% (inactive)
